# Tested on: HCT-116
# ASSAY_NAME: NCI tumour cell line growth inhibition, 48 h
Active and inactive are the calls of the source. Cut-off read from the data, not from the text of the source: active = GI50 up to about 1.1 µM and inactive = higher.
Write down the outcome that applies. Available outcomes: Yes (active), No (inactive)

Reference set (5 entries):
COMPOUND: CCCC(N)C(=O)c1ccccc1 (configuration not stated)
TESTED_SYSTEM: HCT-116
CAT: No

COMPOUND: Cc1ccccc1NC(=O)CC(=O)N1N=C(N2c3ccccc3Sc3ccccc32)CC1c1ccccc1 (configuration not stated)
TESTED_SYSTEM: HCT-116
CAT: No

COMPOUND: CC(=O)OC[C@]1(O)CC[C@@]23CC1C[C@@H]2CCC1C(C)(C)CCC[C@@]13C (some centres not stated)
TESTED_SYSTEM: HCT-116
CAT: No

COMPOUND: Cc1cccc(Nc2cn(COCc3ccccc3)c(=O)[nH]c2=O)c1
TESTED_SYSTEM: HCT-116
CAT: No

COMPOUND: Cn1nc(C(=O)N2CC(CCl)c3c2cc(N)c2ccccc32)cc1NC(=O)Nc1cc(C(=O)N2CC(CCl)c3c2cc(N)c2ccccc32)nn1C (configuration not stated)
TESTED_SYSTEM: HCT-116
CAT: Yes

Data request: Hi, sorry to bother you, what did the test record for O=C1c2ccccc2C2=Cc3ccccc3C(O)N12 (configuration not stated) ?
Data returned: No

Data request: Hi, sorry to bother you, what did the test record for C/C=C1\CN(C(=O)OC(C)(C)C)C1C(=O)OC(C)(C)C (configuration not stated) ?
Data returned: No

Data request: Hi, sorry to bother you, what did the test record for CN(C)CCNC(=O)Cn1cc([N+](=O)[O-])c(=O)c2ccccc21 ?
Data returned: No

* * *

# Test system: OVCAR-5
# ASSAY_NAME: NCI tumour cell line growth inhibition, 48 h
The source made the active and inactive calls. Rule as the data show it: active = GI50 up to about 1.1 µM and inactive = higher.
// reported GI50 per item

COMPOUND: O=C1c2cc([N+](=O)[O-])sc2C(=O)c2cc([N+](=O)[O-])sc21
TESTED_SYSTEM: OVCAR-5
ASSAY_VALUE: 7.11 µM (inactive)

COMPOUND: O=c1c2cc(I)ccc2nc(-c2cccs2)n1Nc1ccccc1
TESTED_SYSTEM: OVCAR-5
ASSAY_VALUE: 30.5 µM (inactive)

COMPOUND: CCCCN(CCCC)C(=O)C(=O)C(C#N)c1ccc(C)cc1 (stereo unspecified)
TESTED_SYSTEM: OVCAR-5
ASSAY_VALUE: > 100 µM (inactive)

Please turn your attention to the following entry.
Data request: What measured GI50 goes with Fc1cccc(F)c1C1SCc2nc3cc(Cl)ccc3n21 (stereo unspecified) ?
Data returned: 84.1 µM (inactive)

* * *

# Tested on: SF-295
# ASSAY_NAME: NCI tumour cell line growth inhibition, 48 h
Calls of active or inactive are those of the source. Cut-off read from the data, not from the text of the source: active = GI50 up to about 1.1 µM and inactive = higher.
// reported GI50 per item

Data request: What measured GI50 goes with Clc1ccc2c(NCCNc3ccnc4cc(Cl)ccc34)ccnc2c1 ?
Data returned: 13.3 µM (inactive)

Data request: What measured GI50 goes with Cn1nc(-c2ccccc2)c(N=[N+]=[N-])cc1=O ?
Data returned: > 100 µM (inactive)

Data request: What measured GI50 goes with COC(=O)C1[C@@H](C(=O)OC)C(=O)O[C@H]1c1cc(OC)c(OC)c(OC)c1 (some centres not stated) ?
Data returned: > 100 µM (inactive)

Data request: What measured GI50 goes with N#CNC1=NC(CCCC(=O)Nc2cccc([N+](=O)[O-])c2)=C(c2nc3ccccc3[nH]2)C(N)N1 (configuration not stated) ?
Data returned: > 100 µM (inactive)

Data request: What measured GI50 goes with Cc1ccc(C2=C(c3ccccc3)C(Br)(c3ccc(C)cc3)C(c3ccccc3)=C2c2ccc(C)cc2)cc1 ?
Data returned: > 100 µM (inactive)

Data request: What measured GI50 goes with C=CCNC1=NC(=O)C(CC(=O)Nc2cccc(Cl)c2)S1 (configuration not stated) ?
Data returned: > 100 µM (inactive)

Data request: What measured GI50 goes with C=C/C=C/NC(=O)OCc1ccccc1 ?
Data returned: > 100 µM (inactive)

* * *

# Test system: DMS-114
# ASSAY_NAME: NCI tumour cell line growth inhibition, 48 h
Activity calls are given as the source filed them. No stated cut-off is given here; in the data, active = GI50 up to about 1.1 µM and inactive = higher.
Write down the outcome that applies. Available outcomes: Y = active, N = inactive

Reference set (3 entries):
COMPOUND: CN(CCO)c1nc(=O)c2c([nH]1)CCC2
TESTED_SYSTEM: DMS-114
CAT: N
--
COMPOUND: CCCCCCCCCCCCC(O)C1CCC(C(O)CCCCC(O)CCCCCC2CC(CC(C)=O)C(=O)O2)O1 (stereo unspecified)
TESTED_SYSTEM: DMS-114
CAT: Y
--
COMPOUND: COC(=O)OCC1OC(N2C(=O)NC(=O)C(Br)C2N=[N+]=[N-])CC1OC(=O)OC (stereo unspecified)
TESTED_SYSTEM: DMS-114
CAT: N

Data request: Hi, sorry to bother you, what did the test record for Cc1cc(Cl)ccc1/N=C1/NC(=O)C(CC(=O)Nc2cccc(C)c2C)S1 (stereo unspecified) ?
Data returned: N

Data request: Hi, sorry to bother you, what did the test record for Cc1ccc2c(c1)C1(OC(=O)c3ccccc31)c1ccc(F)cc1O2 (stereo unspecified) ?
Data returned: N

Data request: Hi, sorry to bother you, what did the test record for CCCCCC(CN1CCOCC1)C(=O)/C=C/c1ccccc1 (stereo unspecified) ?
Data returned: N

* * *

# Test system: DU-145
# ASSAY_NAME: NCI tumour cell line growth inhibition, 48 h
Active and inactive are the calls of the source. No stated cut-off is given here; in the data, active = GI50 up to about 1.1 µM and inactive = higher.
REPORTED_ENDPOINT: GI50

COMPOUND: CC(=S)N/C=C1/C(=O)C=C(C)OC1=O
GI50: > 100 µM (inactive)
//
COMPOUND: CCC(=O)ONC(=O)Cn1ccc([N+](=O)[O-])n1
GI50: > 100 µM (inactive)
//
COMPOUND: [N-]=[N+]=NCc1cccc(Nc2cc(=O)[nH]c(=O)[nH]2)c1
GI50: > 100 µM (inactive)
//
COMPOUND: O=C1C(c2c(O)[nH]c3ccc([N+](=O)[O-])cc23)=Nc2ccccc21
GI50: > 100 µM (inactive)
//
COMPOUND: COC(=O)C12CCC(C(F)(F)C1=O)C2(C)C (centres undefined)
GI50: > 100 µM (inactive)
//
COMPOUND: CCCCCCCCCCCCCCCCOCC(O)CO (centres undefined)
GI50: 18.9 µM (inactive)
//
COMPOUND: CC1CN=C(N(C(=O)Nc2ccc(Cl)c(Cl)c2)c2ccccc2)S1 (centres undefined)
GI50: 91.8 µM (inactive)
//
COMPOUND: C1COCCN1.S=C(S)N1CCOCC1
GI50: > 100 µM (inactive)
//
COMPOUND: N#Cc1nc(/C=C/c2cccs2)oc1N
GI50: > 100 µM (inactive)
//
COMPOUND: NC(=O)CC(/N=C1\C(=O)OC(C(O)CO)\C1=N/C(CC(N)=O)C(=O)O)C(=O)O (centres undefined)
GI50: > 100 µM (inactive)

Data request: What measured GI50 goes with O=C(Cn1cc(Br)c(=O)[nH]c1=O)c1ccc(-c2ccccc2)cc1 ?
Data returned: > 16.1 µM (inactive)

Data request: What measured GI50 goes with O=C1c2cc([N+](=O)[O-])sc2C(=O)c2cc([N+](=O)[O-])sc21 ?
Data returned: 10.3 µM (inactive)

* * *

// reported GI50 per item
# Tested on: KM12
# ASSAY_NAME: NCI tumour cell line growth inhibition, 48 h
Activity calls are given as the source filed them. No stated cut-off is given here; in the data, active = GI50 up to about 1.1 µM and inactive = higher.

COMPOUND: COC(=O)/C(C#N)=C1\CCC(O)N1C (centres undefined)
TESTED_SYSTEM: KM12
ASSAY_VALUE: > 100 µM (inactive)
--
COMPOUND: COc1ccn(CC(=O)c2cc3ccccc3[nH]2)c(=O)n1
TESTED_SYSTEM: KM12
ASSAY_VALUE: > 100 µM (inactive)
--
COMPOUND: C=CCCCCCC(O)C(O)C/C=C\C/C=C\CC (centres undefined)
TESTED_SYSTEM: KM12
ASSAY_VALUE: > 18.8 µM (inactive)
--
COMPOUND: COC1=CC(=O)c2ccccc2C1(CCC=C(C)C)C1=NC(C)(C)CO1 (centres undefined)
TESTED_SYSTEM: KM12
ASSAY_VALUE: > 100 µM (inactive)
--
COMPOUND: CC1C2CC(CC2N)C1(C)C (centres undefined)
TESTED_SYSTEM: KM12
ASSAY_VALUE: > 100 µM (inactive)

Data request: # get_value(readout= GI50, system= KM12) for S=C(NCc1ccccn1)N/N=C/c1ccccn1
Data returned: < 0.01 µM (active)

Data request: # get_value(readout= GI50, system= KM12) for Cn1cc(C(=O)c2nccc3c2cnc2ccccc23)ccc1=O
Data returned: > 100 µM (inactive)

Data request: # get_value(readout= GI50, system= KM12) for CCCCc1ccc(-n2c3nc(=O)n(C)c(=O)c-3nc3ccccc32)cc1
Data returned: 11.2 µM (inactive)

Data request: # get_value(readout= GI50, system= KM12) for O=c1cccc2n1C[C@H]1CNC[C@H]2C1
Data returned: > 100 µM (inactive)
